System: NCI-H1734
assayInfo: relative viability (nuclei count vs DMSO), 5 days (fraction); higher = more cells survive
conditionInfo: first compound 6.325 µM
recordedEndpoint: relative viability

Below, each entry is followed by its recorded relative viability result.
{"compound": "COCC1(CO)C(=O)C2CCN1CC2 (stereo not given) [PRIMA-1MET] + CS(=O)(=O)N1CCN(Cc2cc3nc(-c4cccc5[nH]ncc45)nc(N4CCOCC4)c3s2)CC1 [Pictilisib] (partner 1 µM)", "testedOn": "NCI-H1734", "relative viability": 0.386}
{"compound": "COCC1(CO)C(=O)C2CCN1CC2 (stereo not given) [PRIMA-1MET] + O=C(CCCCCCC(=O)Nc1ccccc1)NO [Vorinostat] (partner 1 µM)", "testedOn": "NCI-H1734", "relative viability": 0.536}
{"compound": "COCC1(CO)C(=O)C2CCN1CC2 (stereo not given) [PRIMA-1MET] + Cc1nc(Nc2ncc(C(=O)Nc3c(C)cccc3Cl)s2)cc(N2CCN(CCO)CC2)n1 [Dasatinib] (partner 0.075 µM)", "testedOn": "NCI-H1734", "relative viability": 0.384}
{"compound": "COCC1(CO)C(=O)C2CCN1CC2 (stereo not given) [PRIMA-1MET] + Nc1ncn([C@H]2C[C@H](O)[C@@H](CO)O2)c(=O)n1 [Decitabine] (partner 2 µM)", "testedOn": "NCI-H1734", "relative viability": 0.474}
{"compound": "COCC1(CO)C(=O)C2CCN1CC2 (stereo not given) [PRIMA-1MET] + O=C(c1cc(Cc2n[nH]c(=O)c3ccccc23)ccc1F)N1CCN(C(=O)C2CC2)CC1 [Olaparib] (partner 8 µM)", "testedOn": "NCI-H1734", "relative viability": 0.631}

State recorded relative viability for all listed compounds.
1. COCC1(CO)C(=O)C2CCN1CC2 (stereo not given) [PRIMA-1MET] + CC(=O)c1c(C)c2cnc(Nc3ccc(N4CCNCC4)cn3)nc2n(C2CCCC2)c1=O [Palbociclib] (partner 0.5 µM)
2. COCC1(CO)C(=O)C2CCN1CC2 (stereo not given) [PRIMA-1MET] + CC1(C)CCC(c2ccc(Cl)cc2)=C(CN2CCN(c3ccc(C(=O)NS(=O)(=O)c4ccc(N[C@H](CCN5CCOCC5)CSc5ccccc5)c(S(=O)(=O)C(F)(F)F)c4)cc3)CC2)C1 [Navitoclax] (partner 0.5 µM)
3. COCC1(CO)C(=O)C2CCN1CC2 (stereo not given) [PRIMA-1MET] + CC(C)C[C@H](NC(=O)[C@H](Cc1ccccc1)NC(=O)c1cnccn1)B(O)O [Bortezomib] (partner 0.002 µM)

0.345
0.922
0.967

Go through the list and state relative viability for each entry.
1. COCC1(CO)C(=O)C2CCN1CC2 (stereo not given) [PRIMA-1MET] + CS(=O)(=O)CCNCc1ccc(-c2ccc3ncnc(Nc4ccc(OCc5cccc(F)c5)c(Cl)c4)c3c2)o1 [Lapatinib] (partner 2 µM)
2. COCC1(CO)C(=O)C2CCN1CC2 (stereo not given) [PRIMA-1MET] + Cc1nc(NC(=O)N2CCC[C@H]2C(N)=O)sc1-c1ccnc(C(C)(C)C(F)(F)F)c1 [Alpelisib] (partner 2 µM)

1.07
0.73
